These measurements were taken from PubChem BioAssay.

- Assay: differential killing of epithelial or mesenchymal cells, primary screen, imaging, PC-3E GFP, TEM4-18 mCherry, co-culture (AID 1345086);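 further: cells exposed to compound for 72 h before imaging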
- Measurement Conditions: imaging cell counts, measured here: epithelial PC-3E GFP cell survival, at 1 µM
Kind request: treat 1 as inclusive, so normalised cell number at 1 or higher is fulfilled, anything lower is not fulfilled.

>>> category_label("CC(=O)OC1CCC2C3CCc4cc(O)ccc4C3CCC12C (configuration not stated)")
"fulfilled"
>>> category_label("CC1(C)S[C@@H]2[C@H](NC(=O)COc3ccccc3)C(=O)N2[C@H]1C(=O)O")
"not fulfilled"
>>> category_label("C=C1[C@@H](C)C2[C@H](Cc3c[nH]c4ccccc34)NC(=O)[C@]23C(=O)/C=C/C(=O)[C@H](OC(C)=O)/C(C)=C/[C@@H](C)C/C=C/[C@H]3[C@@H]1O (some centres not stated)")
"not fulfilled"
>>> category_label("O=C1CC[C@]23/C=C/C(=O)NCCCCNCCCNC(=O)/C=C/c4ccc(c2c4)O[C@@H]3C1")
"fulfilled"
>>> category_label("C[C@@H]1C[C@H](O)[C@@H](O)CO1")
"fulfilled"
>>> category_label("C[C@]1(Cn2ccnn2)C(C(=O)O)N2C(=O)CC2S1(=O)=O (some centres not stated)")
"fulfilled"
>>> category_label("CC(CC(=O)N1C(=O)OC[C@H]1c1ccccc1)N1CCSC1=S (some centres not stated)")
"fulfilled"
>>> category_label("C=C(C)C1CC=C(C)CC1 (configuration not stated)")
"fulfilled"
>>> category_label("C1CCN2C[C@H]3C[C@H](CN4CCCC[C@@H]34)[C@H]2C1")
"fulfilled"

* * *

- Assay: suppressors of polyglutamine aggregation in yeast, 75Q-TubH (AID 1616)
- Measurement Conditions: S. cerevisiae 75Q-TubH polyglutamine aggregation suppression; stronger effect = higher value
Kind request: treat 1 as inclusive, so aggregation suppression score at 1 or higher is T, anything lower is F.

>>> category_label("COc1ccc(C2Sc3ccccc3N(CCN(C)C)C(=O)C2OC(C)=O)cc1 (stereo not given)")
"F"
>>> category_label("CC(C)(C)NC[C@@H](O)COc1nsnc1N1CCOCC1")
"T"
>>> category_label("CC(=O)Oc1c(C)c(C)c2c(c1C)CCC(C)(CCCC(C)CCCC(C)CCCC(C)C)O2 (stereo not given)")
"F"
>>> category_label("CN1C2CC[C@@H]1CC(OC(=O)[C@H](CO)c1ccccc1)C2 (stereo not given in full)")
"T"
>>> category_label("CCCC1O[C@@H]2CC3C4CCC5=CC(=O)C=CC5(C)C4[C@@H](O)CC3(C)[C@]2(C(=O)CO)O1 (stereo not given in full)")
"T"

* * *

- Assay: differential killing of epithelial or mesenchymal cells, primary screen, imaging, PC-3E GFP, TEM4-18 mCherry, co-culture (AID 1345086);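 further: cells exposed to compound for 72 h before imaging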;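 on red/green cell ratio (normalised): normalised mesenchymal count divided by normalised epithelial count so high means epithelial killing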
- Measurement Conditions: imaging cell counts, at 1 µM, actives lie on both sides, counts scaled to control wells, 1 = unselective
Active and inactive are the calls of the source.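 Rule for the calls: active = compounds killing one labelled cell type while sparing the other, by normalised counts and ratio limits, not self-fluorescent; inactive = the rest.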
Measure Name: red/green cell ratio (normalised)

>>> test_value("COc1c(N2CC[C@@H](CN)C2)c(F)cc2c(=O)c(C(=O)O)cn(Cc3ccc(-c4ccccc4)cc3)c12")
"1.14 (inactive)"
>>> test_value("Cc1nccnc1N1CCCCC1")
"1.12 (inactive)"
>>> test_value("C/C=C\\C(=O)O[C@@H]1[C@H](O)[C@@H](O)CO[C@@H]1C")
"1.01 (inactive)"
>>> test_value("OC[C@H]1O[C@H](OCCCc2ccc(O)cc2)[C@H](O)[C@@H](O)[C@@H]1O")
"1.19 (inactive)"

* * *

- System: R275C
- Assay: modulators of BK channel variants, profiling panel, selectivity assay, cell-based, U2OS BacMam, thallium flux, beta subunits (AID 1259406);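 further: initial slope of Thallos dye fluorescence rise after thallium is added; log ratio against the mean of 0.3% DMSO vehicle wells on the same plate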
- Measurement Conditions: at 30 µM
Kind request: treat -0.02 as inclusive, so log fold change Tl+ flux at -0.02 or higher is Criterion met, anything lower is Criterion not met.

>>> category_label("CCC(C)n1ncn(-c2ccc(N3CCN(c4ccc(OCC5COC(Cn6cncn6)(c6ccc(Cl)cc6Cl)O5)cc4)CC3)cc2)c1=O (stereo unspecified)")
"Criterion met"
>>> category_label("CC(=O)O[C@@]12CO[C@@H]1C[C@H](O)[C@@]1(C)C(=O)[C@H](O)C3=C(C)[C@@H](OC(=O)[C@H](O)[C@@H](NC(=O)OC(C)(C)C)c4ccccc4)C[C@](O)([C@@H](OC(=O)c4ccccc4)[C@H]21)C3(C)C")
"Criterion not met"
>>> category_label("Cc1ccc(S(C)(=O)=NC(=O)c2ccc(-c3cc(C(F)(F)F)nn3C)s2)cc1 (stereo unspecified)")
"Criterion not met"
>>> category_label("CN(CCO)CC(O)Cn1cnc2c1c(=O)n(C)c(=O)n2C (stereo unspecified) (tested in a mixture with another compound)")
"Criterion not met"
>>> category_label("CCc1cc(C(=O)c2ccc(OC)cc2)c(NC(=O)CN2CCN(C)CC2)s1")
"Criterion met"
>>> category_label("O=C(O)C(Cc1ccccc1[N+](=O)[O-])=NNc1ccccc1")
"Criterion met"
>>> category_label("COC(=O)C(O)(c1ccc(NC(=O)c2ccc(Cl)c(Cl)c2)cc1)C(F)(F)F (stereo unspecified)")
"Criterion met"
>>> category_label("COc1ccc(CCNC(=O)c2ccccc2NC(=O)c2ccccc2C)cc1OC")
"Criterion not met"
>>> category_label("O=C(Nc1ccc(OC(F)(F)F)cc1)Nc1cc(C(F)(F)F)ccc1N1CCOCC1")
"Criterion met"
>>> category_label("O=C(O)c1ccccc1C(=O)NCc1ccccc1OC(F)(F)F")
"Criterion met"

* * *

- Assay: antimalarial activity against Dd2 strain (AID 2302);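 further: 0% = DMSO untreated growth and 100% = chloroquine plus artemisinin killed control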
- Measurement Conditions: P. falciparum Dd2 in RBCs, LDH growth readout, 72 h; at 2 µM; stronger effect = higher value
Listed below: growth inhibition values for each entry.
Measure Name: growth inhibition (%)

>>> test_value("CCN1CCC(N(Cc2ccc(-c3ccc(C(F)(F)F)cc3)cc2)C(=O)Cn2c(SCc3ccc(F)cc3)nc(=O)c3c2CCC3)CC1")
96
>>> test_value("COc1ccc(-c2cnc3ccc(NCc4ccc(S(N)(=O)=O)cc4)nn23)cn1")
98
>>> test_value("Cc1csc(-c2ncc(OC[C@@H](N)Cc3ccccc3)cc2-c2ccc3n[nH]c(C)c3c2)c1")
35
>>> test_value("O=C(NC(=O)c1ccccc1)NC1CCN(c2ccnc3cc(Cl)ccc23)C1 (configuration not stated)")
99
>>> test_value("Cc1cc(N[C@@H](CC(C)C)C(=O)NCCc2ccccc2)nc(Nc2ccccc2)n1")
38
>>> test_value("Cc1ccc(C(=O)N2CCN(Cc3nccs3)CC2)cc1")
-2
>>> test_value("Oc1cccc(Nc2ccnc3cc(-c4ccncc4)ccc23)c1")
99
>>> test_value("O=C(/C=C/c1ccc(Cl)c(Cl)c1)NCCCCCCN1CCCN(C(=O)Nc2ccc(F)c(Cl)c2)CC1")
1
>>> test_value("c1cc(-c2ccc(CN3CCCC3)cc2)cc(-c2nc3ccccc3[nH]2)c1")
52
>>> test_value("Cc1[nH]n(-c2cccc(Cl)c2)c(=O)c1-c1ccc(Cl)cc1")
41
>>> test_value("Cc1cc2nc(-c3ccc(C(=O)NC4CCN(Cc5ccccc5)CC4)s3)[nH]c2cc1C")
82
>>> test_value("O=C(Nc1cccc(C(F)(F)F)c1)c1ccc(S(=O)(=O)NC2CCN(CC3CCCCC3)CC2)cc1")
-3

* * *

- Assay: sensitizers of A549 cells to miR-34 induction, primary screen, imaging, A549 dox-inducible miR-34, nuclei and caspase counts (AID 1347080)
- Measurement Conditions: A549 miR-34 inducible, Hoechst nuclei count, 48 h; measured here: relative caspase fold change +Dox/-Dox
Measure Name: fold change

>>> test_value("CC1(C)O[C@@H]2CC3C4CCC5=CC(=O)C=C[C@]5(C)C4[C@@H](O)C[C@]3(C)[C@]2(C(=O)CO)O1 (stereo not given in full)")
1.01
>>> test_value("C[C@H](CCC(=O)O)[C@H]1CCC2C3C(=O)CC4CC(=O)CC[C@]4(C)C3CC(=O)[C@@]21C (stereo not given in full)")
1.32
>>> test_value("CC(=O)OCC(=O)[C@@]1(O)[C@H](OC(C)=O)CC2C3CCC4=CC(=O)C=C[C@]4(C)[C@@]3(F)[C@@H](O)C[C@@]21C (stereo not given in full)")
3.23
>>> test_value("CC(=O)O[C@]1(C(C)=O)CCC2C3C=C(C)C4=CC(=O)CCC4(C)C3CCC21C (stereo not given in full)")
2.81
>>> test_value("OCc1ccccc1")
0.934

* * *

- Assay: sensitizers of A549 cells to miR-34 induction, primary screen, imaging, A549 dox-inducible miR-34, nuclei and caspase counts (AID 1347080)
- Measurement Conditions: A549 miR-34 inducible, Hoechst nuclei count, 48 h; stronger effect = lower value; cell number ratio, induced over uninduced
Measure Name: fold change

>>> test_value("O=C(O)c1cc(O)c2c(c1)[C@@H]([C@H]1c3cc(C(=O)O)cc(O)c3C(=O)c3c(O[C@H]4O[C@H](CO)[C@@H](O)[C@H](O)[C@H]4O)cccc31)c1cccc(O[C@H]3O[C@H](CO)[C@@H](O)[C@H](O)[C@H]3O)c1C2=O")
0.789
>>> test_value("CC(=O)O[C@]1(C(C)=O)CCC2C3C=C(Cl)C4=CC(=O)CC[C@]4(C)C3CC[C@@]21C (stereo not given in full)")
0.904
>>> test_value("CC(=O)O[C@]1(C(C)=O)CCC2C3C=C(Cl)C4=CC(=O)[C@@H]5C[C@@H]5[C@]4(C)C3CC[C@@]21C (stereo not given in full)")
0.907
>>> test_value("C[C@]12CCC3c4ccc(O)cc4CCC3C1C[C@@H](O)[C@@H]2O (stereo not given in full)")
0.868
>>> test_value("CC[C@@H]1OC(=O)C[C@@H](O)[C@H](C)[C@@H](O[C@@H]2O[C@H](C)[C@@H](O)[C@H](N(C)C)[C@H]2O)[C@@H](CCN2C[C@H](C)C[C@H](C)C2)C[C@@H](C)C(=O)/C=C/C(C)=C\\[C@@H]1CO[C@@H]1O[C@H](C)[C@@H](O)[C@@H](OC)[C@H]1OC")
0.885
>>> test_value("C[C@]12CCC(=O)C=C1CCC1C2[C@@H](O)C[C@@]2(C)C1CC[C@]2(O)C(=O)CO (stereo not given in full)")
0.949
>>> test_value("CC(=O)C1(O)CCC2C3CC(C)C4=CC(=O)C=CC4(C)C3(F)C(O)CC21C (stereo not given)")
0.925
>>> test_value("C[C@H]1CC2C3CCC4=CC(=O)C=C[C@]4(C)[C@@]3(F)[C@@H](O)C[C@]2(C)[C@@]1(O)C(=O)COP(=O)(O)O (stereo not given in full)")
0.873
>>> test_value("C[C@]12CCC(=O)C=C1C=CC1C2CC[C@@]2(C)C1CC[C@@]21CCC(=O)O1 (stereo not given in full)")
0.895
>>> test_value("COc1ccc(-c2oc3cc(OC)ccc3c2C(=O)c2ccc(C#N)cc2)cc1")
0.933
